assayed-system: Nuclear receptor subfamily 2 group E member 1 (Homo sapiens)
Sequence (Q9Y466 whole entry, the tested form may be a part): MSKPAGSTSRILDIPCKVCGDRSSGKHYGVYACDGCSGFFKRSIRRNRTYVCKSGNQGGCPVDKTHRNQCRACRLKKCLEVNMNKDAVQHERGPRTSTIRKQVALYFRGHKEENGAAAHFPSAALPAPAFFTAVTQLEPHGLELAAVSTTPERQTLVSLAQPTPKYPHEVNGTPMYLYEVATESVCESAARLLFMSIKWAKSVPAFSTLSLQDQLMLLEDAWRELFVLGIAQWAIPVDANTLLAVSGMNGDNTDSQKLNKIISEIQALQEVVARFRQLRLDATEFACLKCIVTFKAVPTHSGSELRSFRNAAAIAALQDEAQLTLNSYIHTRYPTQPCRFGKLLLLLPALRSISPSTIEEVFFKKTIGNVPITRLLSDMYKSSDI
test-name: Agonist activity at in human TLX LBD expressed in human HEK293T cells coexpressing Gal4-VP 16 assessed as fold […] in reporter activity at 100 uM measured after 14 hrs by luciferase reporter gene assay relative to control
Type: cell-based
condition-summary: filed as agonist
quantity-name: fold change (FC)
Number, no unit, nothing else.

Known fold change (FC) results, listed for orientation:
COc1ccc2[nH]c(SC)nc2c1 = 2.7
CCCCOc1cc(C(=O)NC)c2ccccc2n1 = 32
Clc1ccc(C(c2ccccc2)N2CCNCC2)cc1 (configuration not stated) = 0.37

Record Cc1cn(-c2cc(N)cc(C(F)(F)F)c2)cn1 ; system Nuclear receptor subfamily 2 group E member 1 (Homo sapiens); fold change (FC) = 0.44

Record O=c1[nH]nc(Cc2ccccc2)c2ccccc12 ; system Nuclear receptor subfamily 2 group E member 1 (Homo sapiens); fold change (FC) = 0.17

Record CNC(=O)c1cc(Cl)c(N)cc1OC ; system Nuclear receptor subfamily 2 group E member 1 (Homo sapiens); fold change (FC) = 0.46

Record Nc1cnc2ccccc2n1 ; system Nuclear receptor subfamily 2 group E member 1 (Homo sapiens); fold change (FC) = 2.9
